Method summary: self-splicing fitness, log relative to wild type (ln ratio); higher = more splicing; Tetrahymena group I intron in knt gene, E. coli kanamycin selection, DiMSum; sequences stand for … in CUCUCU…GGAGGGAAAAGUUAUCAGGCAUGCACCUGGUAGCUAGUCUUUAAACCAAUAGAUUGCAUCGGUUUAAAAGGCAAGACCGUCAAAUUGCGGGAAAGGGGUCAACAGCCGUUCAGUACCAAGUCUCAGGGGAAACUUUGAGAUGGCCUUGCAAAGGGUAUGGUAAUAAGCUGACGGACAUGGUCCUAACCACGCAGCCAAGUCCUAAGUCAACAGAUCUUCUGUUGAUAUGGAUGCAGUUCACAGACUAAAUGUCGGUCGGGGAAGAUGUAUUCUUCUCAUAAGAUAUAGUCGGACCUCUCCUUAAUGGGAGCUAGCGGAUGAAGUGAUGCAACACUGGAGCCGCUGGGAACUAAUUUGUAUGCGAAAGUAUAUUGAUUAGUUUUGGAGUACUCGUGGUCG;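 note: selection with 25 µg/mL kanamycin versus none on LB agar overnight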
Study conditions: 30 °C
Parameter: self-splicing fitness (ln)

// below: answered sequences
Qu. May I ask what self-splicing fitness (ln) has been recorded for `UCCUAGCAAUAUUACGUAGC` ?
Ans. -3.05

Qu. So what does the record say about self-splicing fitness (ln) for `UAUAAGCAAUAUUACGAAGU` ?
Ans. -3.7

Qu. Item `GCCGAGCAAUAUUACGAAUU` has what recorded self-splicing fitness (ln)?
Ans. -2.59

Qu. # lookup: self-splicing fitness (ln) of `CAAUAGCAAUAUUACGCUUC`
Ans. -4.65

Qu. GET /values?readout=self-splicing fitness (ln)&item= `UUACAGCAAUAUUACGCACU`
Ans. -0.534

New cases:
Qu. Dear colleague, I am looking for the recorded self-splicing fitness (ln) of the following sequence: `CCAUAGCAAUAUUACGAAAU`
Ans. -2.98

Qu. Please report the recorded self-splicing fitness (ln) for `UACUAGCAAUAUUACGACCG` .
Ans. -0.634

Qu. # get_value(readout='self-splicing fitness (ln)', item= `GGCUAGCAAUAUUACGACUG` )
Ans. -1.54

Qu. GET /values?readout=self-splicing fitness (ln)&item= `GUUAAGCAAUAUUACGGGGA`
Ans. -3.04

Qu. Item `UGUCAGCAAUAUUACGUCAG` has what recorded self-splicing fitness (ln)?
Ans. -0.398

----------
Method summary: self-splicing fitness, log relative to wild type (ln ratio); higher = more splicing; Tetrahymena group I intron in knt gene, E. coli kanamycin selection, DiMSum; sequences stand for … in CUCUCU…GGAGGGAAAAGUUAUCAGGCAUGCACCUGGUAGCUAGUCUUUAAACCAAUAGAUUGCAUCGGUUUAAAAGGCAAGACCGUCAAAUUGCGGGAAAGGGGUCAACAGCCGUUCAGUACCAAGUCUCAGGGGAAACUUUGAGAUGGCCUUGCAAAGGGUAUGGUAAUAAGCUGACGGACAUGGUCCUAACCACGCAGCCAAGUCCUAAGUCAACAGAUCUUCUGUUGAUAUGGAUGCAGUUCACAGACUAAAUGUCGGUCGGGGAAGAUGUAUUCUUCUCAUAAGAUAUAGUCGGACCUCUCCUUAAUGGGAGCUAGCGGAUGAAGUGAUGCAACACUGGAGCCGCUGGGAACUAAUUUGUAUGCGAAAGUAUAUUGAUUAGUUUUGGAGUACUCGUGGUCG
Study conditions: 37 °C
Binary classification by self-splicing fitness (ln), with -0.5 as an inclusive lower bound for TRUE; all other cases are FALSE.

Worked examples follow.
Qu. Does self-splicing fitness (ln) meet or surpass -0.5 for `CGUGAGCAAUAUUACGCUAC` ?
Ans. FALSE

Qu. Threshold query (self-splicing fitness (ln) >= -0.5) on `UGACAGCAAUAUUACGUAAU`
Ans. FALSE

Next:
Qu. Can `AGCCAGCAAUAUUACGAGCA` be said to have self-splicing fitness (ln) at or above -0.5?
Ans. TRUE

Qu. Hi team, for `UAGAAGCAAUAUUACGUAGC` , is the recorded self-splicing fitness (ln) at or above -0.5?
Ans. FALSE

Qu. Quick check: does `GGUCAGCAAUAUUACGUAGC` have self-splicing fitness (ln) greater than or equal to -0.5?
Ans. TRUE

Qu. Reported self-splicing fitness (ln) reaches at least -0.5 for `AUCGAGCAAUAUUACGCCCG` ?
Ans. FALSE

Qu. Hello, I need to know if `GUCCAGCAAUAUUACGCGUG` has measured self-splicing fitness (ln) not below -0.5. Thanks!
Ans. TRUE

Qu. Quick check, self-splicing fitness (ln) >= -0.5? `AGUGAGCAAUAUUACGACAC`
Ans. FALSE

Qu. Please check the record `CGCGAGCAAUAUUACGCCUA` and state if its self-splicing fitness (ln) is at or above -0.5.
Ans. FALSE

Qu. Textbook exercise: given the entry `GACCAGCAAUAUUACGUAUA` , state whether its self-splicing fitness (ln) is greater than or equal to -0.5.
Ans. TRUE

Qu. Assess whether reported self-splicing fitness (ln) for `UGAAAGCAAUAUUACGAAAG` sits at -0.5 or higher.
Ans. FALSE

Qu. Please check the record `GGGUAGCAAUAUUACGUACU` and state if its self-splicing fitness (ln) is at or above -0.5.
Ans. FALSE

Qu. API: above_or_equal(metric=self-splicing fitness (ln), cutoff=-0.5) for item `UCGCAGCAAUAUUACGAUAC`
Ans. FALSE

Qu. # check: self-splicing fitness (ln) of `GAUCAGCAAUAUUACGAAAU` is greater than or equal to -0.5
Ans. TRUE

Qu. Evaluate `CUUGAGCAAUAUUACGCAGU` : self-splicing fitness (ln) at minimum -0.5?
Ans. FALSE

Qu. Test whether the sequence `CUCCAGCAAUAUUACGCUUU` records self-splicing fitness (ln) of -0.5 or higher.
Ans. FALSE

Qu. Does `GACAAGCAAUAUUACGCUGC` have a reported self-splicing fitness (ln) of at least -0.5?
Ans. FALSE

Qu. Dear colleague, could you confirm whether `AGAUAGCAAUAUUACGACUU` has self-splicing fitness (ln) at or above -0.5?
Ans. TRUE

Qu. Could you tell me if the measured self-splicing fitness (ln) of `GUUCAGCAAUAUUACGAAGC` reaches -0.5 or more?
Ans. FALSE

Qu. Is reported self-splicing fitness (ln) greater than or equal to -0.5 here: `GGCUAGCAAUAUUACGUCCG`
Ans. TRUE

Qu. Check this sequence for self-splicing fitness (ln) at or above -0.5: `UCAAAGCAAUAUUACGCUAG`
Ans. FALSE

----------
Method summary: self-splicing fitness, log relative to wild type (ln ratio); higher = more splicing; Tetrahymena group I intron in knt gene, E. coli kanamycin selection, DiMSum; sequences stand for … in CUCUCU…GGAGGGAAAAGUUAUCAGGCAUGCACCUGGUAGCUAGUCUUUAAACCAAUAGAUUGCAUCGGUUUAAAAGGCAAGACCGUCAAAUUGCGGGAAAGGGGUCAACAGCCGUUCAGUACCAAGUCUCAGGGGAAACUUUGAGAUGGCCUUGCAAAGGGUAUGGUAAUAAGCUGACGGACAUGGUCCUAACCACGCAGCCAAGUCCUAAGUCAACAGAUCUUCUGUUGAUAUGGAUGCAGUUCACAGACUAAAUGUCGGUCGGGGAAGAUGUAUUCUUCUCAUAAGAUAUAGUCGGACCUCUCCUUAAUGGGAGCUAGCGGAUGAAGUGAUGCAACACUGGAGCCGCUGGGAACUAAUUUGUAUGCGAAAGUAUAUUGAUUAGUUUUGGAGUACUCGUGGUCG
Study conditions: 30 °C
// label = met if self-splicing fitness (ln) is not less than -1, otherwise not met

A selection of reference data follows.
Qu. Can `GUCCAGCAAUAUUACGGGCG` be said to have self-splicing fitness (ln) at or above -1?
Ans. not met

Qu. Could you please find out whether `AAGUAGCAAUAUUACGGUUU` has self-splicing fitness (ln) that meets -1 or exceeds it?
Ans. met

Qu. Textbook exercise: given the entry `GGGCAGCAAUAUUACGCGAC` , state whether its self-splicing fitness (ln) is greater than or equal to -1.
Ans. not met

Qu. Kindly determine if self-splicing fitness (ln) recorded for `UUAGAGCAAUAUUACGUGUA` is above or exactly -1.
Ans. not met

Qu. hey, is self-splicing fitness (ln) for this one >= -1? `UGAAAGCAAUAUUACGCCAU`
Ans. not met

Continuing:
Qu. Does the sequence `UACCAGCAAUAUUACGAUAA` have recorded self-splicing fitness (ln) that is -1 or more?
Ans. met

Qu. Does self-splicing fitness (ln) meet or surpass -1 for `AGUGAGCAAUAUUACGACUA` ?
Ans. not met

Qu. Could you tell me if the measured self-splicing fitness (ln) of `UAGUAGCAAUAUUACGCGCG` reaches -1 or more?
Ans. met

Qu. State whether the measured self-splicing fitness (ln) reaches -1, counting equality as reaching it, for `GUCCAGCAAUAUUACGUUUU`
Ans. not met

Qu. Is reported self-splicing fitness (ln) greater than or equal to -1 here: `UAUCAGCAAUAUUACGAGAC`
Ans. not met

Qu. Has `AUAUAGCAAUAUUACGUUCC` a recorded self-splicing fitness (ln) greater than or equal to -1?
Ans. not met

Qu. For this sequence, is measured self-splicing fitness (ln) -1 or higher? `GACUAGCAAUAUUACGCCCU`
Ans. met

Qu. Does `CUCUAGCAAUAUUACGCCUC` have a reported self-splicing fitness (ln) of at least -1?
Ans. not met
